Data provenance: a collection of fitness landscapes (doi:10.1126/science.1257360)

B1: PhoQ; a variant is named by its letters at X, in order, P23837 (parent)
chain: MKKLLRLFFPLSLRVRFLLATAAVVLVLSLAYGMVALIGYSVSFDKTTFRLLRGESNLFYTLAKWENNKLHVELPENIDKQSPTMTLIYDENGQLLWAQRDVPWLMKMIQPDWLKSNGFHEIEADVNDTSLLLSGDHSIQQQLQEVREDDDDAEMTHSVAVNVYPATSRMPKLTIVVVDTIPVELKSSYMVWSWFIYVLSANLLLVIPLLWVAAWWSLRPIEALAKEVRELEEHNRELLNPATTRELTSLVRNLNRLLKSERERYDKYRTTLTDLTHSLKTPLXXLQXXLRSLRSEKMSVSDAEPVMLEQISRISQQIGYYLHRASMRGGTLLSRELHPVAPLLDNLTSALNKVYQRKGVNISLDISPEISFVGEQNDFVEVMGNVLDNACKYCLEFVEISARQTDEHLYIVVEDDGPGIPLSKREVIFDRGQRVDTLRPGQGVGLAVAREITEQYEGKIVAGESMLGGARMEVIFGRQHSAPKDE

variants of: B1; assay: enrichment ratio after two sorts for PhoP signalling (ratio (wild type AVST 3.29)); higher = more functional; settings: with PhoP (E. coli)
Over roughly 140,000 sequences, “enrichment ratio after two sorts for PhoP signalling” has its median near 0; the highest 2% begin near 11. This is one part of a sample in which the highest values are shown more often than they occur.
OUTCOME_MEASURE: enrichment ratio

# count of solved cases: 5
{"columns": ["MUTANT_NAME", "enrichment ratio"],
 "data": [
  ["NVCW", "≤ 0.25"],
  ["AKAV", 0.73],
  ["SQAV", 6.43],
  ["GTCG", 7.53],
  ["TNAE", "≤ 0.25"]
]}

API: the following record is the query input.
Item under review: TNAT . Reported enrichment ratio?
11
